Substrate: C=CC1=C(C)/C(=C/c2[nH]c(/C=C3N=C(/C=C4\NC(=O)C(C)=C4C=C)C(C)=C\3CCC(=O)O)c(CCC(=O)O)c2C)NC1=O
Experiment: steady-state kinetics, A450 bilirubin formation
Type: biochemical, Rattus norvegicus
Settings: 100 μM NADPH, 100 mM Tris-HCl pH 8.75
QUANTITY MEASURED: Km (µM)
All answers are understood in µM, so give the number only.

Q: Dear colleague, I am looking for the recorded Km of the following protein: rat BVR (Rattus norvegicus) (protein, C-terminal His tag (pET21a-rat bvr), E. coli BL21(DE3)) MDAEPKRKFGVVVVGVGRAGSVRLRDLKDPRSAAFLNLIGFVSRRELGSLDEVRQISLEDALRSQEIDVAYICSESSSHEDYIRQFLQAGKHVLVEYPMTLSFAAAQELWELAAQKGRVLHEEHVELLMEEFEFLRREVLGKELLKGSLRFTASPLEEERFGFPAFSGISRLTWLVSLFGELSLISATLEERKEDQYMKMTVQLETQNKGLLSWIEEKGPGLKRNRYVNFQFTSGSLEEVPSVGVNKNIFLKDQDIFVQKLLDQVSAEDLAAEKKRIMHCLGLASDIQKLCHQKK
A: 4.6

Q: Dear colleague, I am looking for the recorded Km of the following protein: rat BVR (Rattus norvegicus; R171E) (protein, C-terminal His tag (pET21a-rat bvr), E. coli BL21(DE3)) MDAEPKRKFGVVVVGVGRAGSVRLRDLKDPRSAAFLNLIGFVSRRELGSLDEVRQISLEDALRSQEIDVAYICSESSSHEDYIRQFLQAGKHVLVEYPMTLSFAAAQELWELAAQKGRVLHEEHVELLMEEFEFLRREVLGKELLKGSLRFTASPLEEERFGFPAFSGISELTWLVSLFGELSLISATLEERKEDQYMKMTVQLETQNKGLLSWIEEKGPGLKRNRYVNFQFTSGSLEEVPSVGVNKNIFLKDQDIFVQKLLDQVSAEDLAAEKKRIMHCLGLASDIQKLCHQKK
A: 45.7

Q: Dear colleague, I am looking for the recorded Km of the following protein: rat BVR (Rattus norvegicus; R171A) (protein, C-terminal His tag (pET21a-rat bvr), E. coli BL21(DE3)) MDAEPKRKFGVVVVGVGRAGSVRLRDLKDPRSAAFLNLIGFVSRRELGSLDEVRQISLEDALRSQEIDVAYICSESSSHEDYIRQFLQAGKHVLVEYPMTLSFAAAQELWELAAQKGRVLHEEHVELLMEEFEFLRREVLGKELLKGSLRFTASPLEEERFGFPAFSGISALTWLVSLFGELSLISATLEERKEDQYMKMTVQLETQNKGLLSWIEEKGPGLKRNRYVNFQFTSGSLEEVPSVGVNKNIFLKDQDIFVQKLLDQVSAEDLAAEKKRIMHCLGLASDIQKLCHQKK
A: 24.4
